Where do the numbers come from? From patent US20240343694A1.

molecular target: EGFR del19 (Homo sapiens (Human), UniProt P00533, DEL746-750); test: HTRF inhibitory activity against EGFR mutant enzyme (EGFR del19); settings: recombinant enzyme, 37° C. for 2 hours
Sequence (P00533 other isoform, or with tags, fused parts or gaps del 1-668/del 746-750 limits assumed): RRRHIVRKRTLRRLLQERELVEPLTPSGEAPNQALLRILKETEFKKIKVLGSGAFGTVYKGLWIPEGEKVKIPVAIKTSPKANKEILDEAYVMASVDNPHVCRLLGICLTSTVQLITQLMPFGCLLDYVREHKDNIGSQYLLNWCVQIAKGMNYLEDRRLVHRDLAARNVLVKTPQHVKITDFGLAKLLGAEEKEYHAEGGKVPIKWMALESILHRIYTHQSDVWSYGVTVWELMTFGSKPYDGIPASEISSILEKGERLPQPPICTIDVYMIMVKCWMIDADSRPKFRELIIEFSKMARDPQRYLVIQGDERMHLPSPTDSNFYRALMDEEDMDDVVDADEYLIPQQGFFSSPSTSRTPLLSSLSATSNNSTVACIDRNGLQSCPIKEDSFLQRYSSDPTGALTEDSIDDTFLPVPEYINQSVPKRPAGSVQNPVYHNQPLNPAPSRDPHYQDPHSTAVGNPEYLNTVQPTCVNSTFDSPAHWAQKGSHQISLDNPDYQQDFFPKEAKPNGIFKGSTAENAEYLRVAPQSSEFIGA
pIC50: −log10 of the molar value.
Catalogue of pIC50 values

>  <Smiles Structure>
C=CC(=O)Nc1cc(Nc2ncc(C)c(Nc3ccccc3NS(=O)(=O)c3ccc(C)cc3)n2)c(OC)cc1N(C)CCN(C)C

>  <pIC50>
8.00

$$$$
>  <Smiles Structure>
C=CC(=O)Nc1cc(Nc2ncc(Cl)c(Nc3cccc(Cl)c3N(C)S(C)(=O)=O)n2)c(OC)cc1N(C)CCN(C)C

>  <pIC50>
> 9.00

$$$$
>  <Smiles Structure>
C=C(F)C(=O)Nc1cc(Nc2ncc(Cl)c(Nc3cccc4c3N(S(C)(=O)=O)CCC4)n2)c(OC)cc1N(C)CCN(C)C

>  <pIC50>
> 9.00

$$$$
>  <Smiles Structure>
C=CC(=O)Nc1cc(Nc2ncc(Cl)c(Nc3cccc4c3N(S(C)(=O)=O)CC4)n2)c(OC)cc1N(C)CCN1CCOCC1

>  <pIC50>
> 9.00

$$$$
>  <Smiles Structure>
C=CC(=O)Nc1cc(Nc2ncc(Cl)c(Nc3ccccc3NS(=O)(=O)CCC)n2)c(OC)cc1N(C)CCN(C)C

>  <pIC50>
> 9.00

$$$$
>  <Smiles Structure>
C=CC(=O)Nc1cc(Nc2ncc(Cl)c(Nc3ccccc3N(C)S(C)(=O)=O)n2)c(OC)cc1N(C)CCN(C)C

>  <pIC50>
> 9.00

$$$$
>  <Smiles Structure>
C=CC(=O)Nc1cc(Nc2nccc(Nc3ccccc3NS(=O)(=O)c3ccc(C)cc3)n2)c(OC)cc1N(C)CCN(C)C

>  <pIC50>
7.70

$$$$

---

Biological target: EGFR A763_Y764insFHEA (Homo sapiens (Human), UniProt P00533, INS763FHEA)
Sequence (P00533 other isoform, or with tags, fused parts or gaps del 1-694/ins FHEA behind 763 limits assumed): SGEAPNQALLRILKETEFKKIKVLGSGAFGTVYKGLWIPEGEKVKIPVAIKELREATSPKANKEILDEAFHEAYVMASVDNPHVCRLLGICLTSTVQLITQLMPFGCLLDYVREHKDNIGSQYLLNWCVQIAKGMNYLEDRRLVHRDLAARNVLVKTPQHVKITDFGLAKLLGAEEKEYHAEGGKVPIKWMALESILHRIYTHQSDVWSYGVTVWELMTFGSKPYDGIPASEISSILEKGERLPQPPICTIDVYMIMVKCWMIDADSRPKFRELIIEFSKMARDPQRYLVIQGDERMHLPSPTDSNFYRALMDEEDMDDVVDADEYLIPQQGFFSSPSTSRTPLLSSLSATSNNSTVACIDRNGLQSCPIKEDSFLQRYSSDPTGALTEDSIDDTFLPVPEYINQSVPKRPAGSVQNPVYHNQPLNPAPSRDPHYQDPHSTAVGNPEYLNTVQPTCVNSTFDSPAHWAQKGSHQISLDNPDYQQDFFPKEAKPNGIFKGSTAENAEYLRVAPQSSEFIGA
Experiment: HTRF inhibitory activity against EGFR mutant enzyme (EGFR A763_Y764insFHEA)
Details: recombinant enzyme, 37° C. for 2 hours
Experimental: The activity of the compounds of the present invention against EGFR mutant enzymes was measured using the HTRF system purchased from Cisbio as follows. […] The enzyme reaction begins by first mixing component 1 and component 2 and then adding component 3 thereto. […] Finally, the ratio of fluorescence values at 615 nm and 665 nm was measured using Perkin-Elmer's Envision instrument to calculate enzyme activity and confirm the inhibitory ability of the compounds. […]
pIC50: −log10 of the molar value.
# pIC50 annotations

>  <Molecule>
C=CC(=O)Nc1cc(Nc2ncc(Cl)c(Nc3cccc4c3N(S(=O)(=O)CC)CC4)n2)c(OC)cc1N(C)CCN1CCCC1 [Example 75]

>  <Comparative Sign>
>

>  <pIC50>
9.00

$$$$
>  <Molecule>
C=CC(=O)Nc1cc(Nc2ncc(Cl)c(Nc3cccc(Cl)c3NS(C)(=O)=O)n2)c(OC)cc1N(C)CCN(C)C [Example 34]

>  <Comparative Sign>
=

>  <pIC50>
9.00

$$$$
>  <Molecule>
COc1cc(N2CCOCC2)c(NC(=O)/C=C/CN(C)C)cc1Nc1ncc(Cl)c(Nc2ccccc2NS(C)(=O)=O)n1 [Example 26]

>  <Comparative Sign>
=

>  <pIC50>
6.70

$$$$
>  <Molecule>
C=CC(=O)Nc1cc(Nc2ncc(Cl)c(Nc3cccc4c3N(S(C)(=O)=O)CC4)n2)c(OC)cc1N1CCC(N(C)C)CC1 [Example 58]

>  <Comparative Sign>
=

>  <pIC50>
8.00

$$$$
>  <Molecule>
C=CC(=O)Nc1cc(Nc2ncc(Cl)c(Nc3cccc4c3N(C(=O)CC)CC4)n2)c(OC)cc1N(C)CCN(C)C [Example 93]

>  <Comparative Sign>
=

>  <pIC50>
8.70

$$$$
>  <Molecule>
C=CC(=O)Nc1cc(Nc2ncc(Cl)c(Nc3ccccc3NS(=O)(=O)CC)n2)c(OC)cc1N(C)CCN(C)C [Example 4]

>  <Comparative Sign>
=

>  <pIC50>
8.70

$$$$
>  <Molecule>
C=CC(=O)Nc1cc(Nc2ncc(Cl)c(Nc3cccc4c3N(C(=O)CC)CCC4)n2)c(OC)cc1N(C)CCN(C)C [Example 94]

>  <Comparative Sign>
=

>  <pIC50>
7.66

$$$$
>  <Molecule>
C=CC(=O)Nc1cc(Nc2ncc(Cl)c(Nc3ccccc3NS(C)(=O)=O)n2)c(OC)cc1N(C)CCNC [Example 25]

>  <Comparative Sign>
>

>  <pIC50>
9.00

$$$$
>  <Molecule>
C=CC(=O)Nc1cc(Nc2ncc(Cl)c(Nc3ccc(C)cc3N(C)S(C)(=O)=O)n2)c(OC)cc1N(C)CCN1CCCC1 [Example 76]

>  <Comparative Sign>
>

>  <pIC50>
9.00

$$$$
>  <Molecule>
C=CC(=O)Nc1cc(Nc2ncc(Cl)c(Nc3ccc(C)cc3N(C)S(C)(=O)=O)n2)c(OC)cc1N(C)CCN(C)C [Example 45]

>  <Comparative Sign>
>

>  <pIC50>
9.00

$$$$
>  <Molecule>
C=CC(=O)Nc1cc(Nc2ncc(C(F)(F)F)c(Nc3cccc4c3N(S(C)(=O)=O)CC4)n2)c(OC)cc1N(C)CCN(C)C [Example 65]

>  <Comparative Sign>
>

>  <pIC50>
9.00

$$$$
>  <Molecule>
C=CC(=O)Nc1cc(Nc2ncc(Cl)c(Nc3ccccc3N(C)C(C)=O)n2)c(OC)cc1N(C)CCN(C)C [Example 89]

>  <Comparative Sign>
=

>  <pIC50>
7.11

$$$$
>  <Molecule>
C=CC(=O)Nc1cc(Nc2ncc(Cl)c(Nc3cccc4c3N(S(C)(=O)=O)CC4)n2)c(OC)cc1N(C)CCNC [Example 57]

>  <Comparative Sign>
>

>  <pIC50>
9.00

$$$$
>  <Molecule>
C=CC(=O)Nc1cc(Nc2ncc(Cl)c(Nc3cccc4c3N(S(C)(=O)=O)CC4)n2)c(OC)cc1N(C)CCN1CCCCC1 [Example 72]

>  <Comparative Sign>
>

>  <pIC50>
9.00

$$$$
>  <Molecule>
C=CC(=O)Nc1cc(Nc2ncc(Cl)c(Nc3cccc4c3N(S(C)(=O)=O)CC4)n2)c(OC)cc1OCCN1CCCCC1 [Example 78]

>  <Comparative Sign>
>

>  <pIC50>
9.00

$$$$
>  <Molecule>
C=CC(=O)Nc1cc(Nc2ncc(Cl)c(Nc3cccc(C)c3NC(C)=O)n2)c(OC)cc1N(C)CCN(C)C [Example 86]

>  <Comparative Sign>
=

>  <pIC50>
7.70

$$$$
>  <Molecule>
C=C(F)C(=O)Nc1cc(Nc2ncc(Cl)c(Nc3cccc4c3N(S(C)(=O)=O)CC4)n2)c(OC)cc1N(C)CCN(C)C [Example 66]

>  <Comparative Sign>
>

>  <pIC50>
9.00

$$$$
>  <Molecule>
C=CC(=O)Nc1cc(Nc2ncc(Cl)c(Nc3ccc(C)c(C)c3NS(C)(=O)=O)n2)c(OC)cc1N(C)CCN(C)C [Example 44]

>  <Comparative Sign>
>

>  <pIC50>
9.00

$$$$
>  <Molecule>
C=CC(=O)Nc1cc(Nc2ncc(Cl)c(Nc3cccc(CC)c3N(C)S(C)(=O)=O)n2)c(OC)cc1N(C)CCN(C)C [Example 41]

>  <Comparative Sign>
=

>  <pIC50>
9.00

$$$$
>  <Molecule>
C=CC(=O)Nc1cc(Nc2ncc(Cl)c(Nc3cccc(C)c3N(CC)S(C)(=O)=O)n2)c(OC)cc1N(C)CCN(C)C [Example 39]

>  <Comparative Sign>
>

>  <pIC50>
9.00

$$$$
>  <Molecule>
C=CC(=O)Nc1cc(Nc2ncc(Cl)c(Nc3ccccc3NS(=O)(=O)CCC)n2)c(OC)cc1N(C)CCN(C)C [Example 1]

>  <Comparative Sign>
=

>  <pIC50>
8.40

$$$$
>  <Molecule>
C=CC(=O)Nc1cc(Nc2ncc(C(=O)OC(C)C)c(Nc3cccc4c3N(S(C)(=O)=O)CCC4)n2)c(OC)cc1N(C)CCN(C)C [Example 52]

>  <Comparative Sign>
>

>  <pIC50>
9.00

$$$$
>  <Molecule>
C=CC(=O)Nc1cc(Nc2ncc(F)c(Nc3ccccc3NS(=O)(=O)CC)n2)c(OC)cc1N(C)CCN(C)C [Example 12]

>  <Comparative Sign>
=

>  <pIC50>
8.40

$$$$
>  <Molecule>
C=CC(=O)Nc1cc(Nc2nccc(Nc3ccccc3NS(=O)(=O)CCC)n2)c(OC)cc1N(C)CCN(C)C [Example 8]

>  <Comparative Sign>
=

>  <pIC50>
7.70

$$$$
>  <Molecule>
CC#CC(=O)Nc1cc(Nc2ncc(Cl)c(Nc3cccc4c3N(S(C)(=O)=O)CC4)n2)c(OC)cc1N(C)CCN(C)C [Example 96]

>  <Comparative Sign>
=

>  <pIC50>
8.00

$$$$
>  <Molecule>
C=CC(=O)Nc1cc(Nc2ncc(C)c(Nc3ccccc3NS(=O)(=O)c3ccc(C)cc3)n2)c(OC)cc1N(C)CCN(C)C [Example 17]

>  <Comparative Sign>
=

>  <pIC50>
7.70

$$$$
>  <Molecule>
C=CC(=O)Nc1cc(Nc2ncc(C(=O)OC(C)C)c(Nc3cccc4c3N(S(C)(=O)=O)CC4)n2)c(OC)cc1N(C)CCN(C)C [Example 61]

>  <Comparative Sign>
>

>  <pIC50>
9.00

$$$$
